Origin of values: patent US20160237162A1

# TGT: human HER3 on human cancer cells (human, UniProt P21860 20-1342)
# PROTOCOL NOTES: cell-based or functional assay
Here, each record is paired with measured T47D HRG inducible pHer3 % Max inhibition data.
Numeric only. Scale: %

Illustrative cases are given below, each with its answer.
{"BINDER": "1A4 antibody, human IgG1 (antibody, V domains shown, IgG1, lambda) VH: EVQLLESGGGLVQPGGSLRLSCAASGFTFSYYYMQWVRQAPGKGLEWVSYIGSSGGVTNYADSVKGRFTISRDNSKNTLYLQMNSLRAEDTAVYYCARVGLGDAFDIWGQGTMVTVSS VL: QSVLTQPPSASGTPGQRVTISCSGSSSNIGLNYVSWYQQLPGTAPKLLISRNNQRPSGVPDRFSGSKSGTSASLAISGLRSEDEADYYCAAWDDSPPGEAFGGGTKLTVL", "READOUT UNITS": "%", "MEAS VALUE": 84}
{"BINDER": "2F10 antibody, human IgG1 (antibody, V domains shown) VH: EVQLLESGGGLVQPGGSLRLSCAASGFTFSYYYMQWVRQAPGKGLEWVSYIGSSGGVTNYADSVKGRFTISRDNSKNTLYLQMNSLRAEDTAVYYCARVGLGDAFDIWGQGTMVTVSS VL: QSVLTQPPSASGTPGQRVTISCSGSSSNIGLNYVSWYQQLPGTAPKLLISRNNQRPSGVPDRFSGSKSGTSASLAISGLRSEDEADYYCAAWDDSPSGEAFGGGTKLTVL", "READOUT UNITS": "%", "MEAS VALUE": 86}

I have this binder here, Clone 16 antibody (CL16), human IgG1 (antibody, V domains shown, also called parental IgG; Clone 16-PA) VH: EVQLLESGGGLVQPGGSLRLSCAASGFTFSYYYMQWVRQAPGKGLEWVSYIGSSGGVTNYADSVKGRFTISRDNSKNTLYLQMNSLRAEDTAVYYCARVGLGDAFDIWGQGTMVTVSS VL: QYELTQPPSASGTPGQRVTMSCSGSSSNIGLNYVSWYQQLPGTAPKLLISRNNQRPSGVPDRFSGSKSGTSASLAISGLRSEDEADYYCAAWDDSLSGEVFGGGTKLTVL , and I need its recorded T47D HRG inducible pHer3 % Max inhibition.
75

I have this binder here, 3E1 antibody, human IgG1 (antibody, V domains shown, IgG1, lambda) VH: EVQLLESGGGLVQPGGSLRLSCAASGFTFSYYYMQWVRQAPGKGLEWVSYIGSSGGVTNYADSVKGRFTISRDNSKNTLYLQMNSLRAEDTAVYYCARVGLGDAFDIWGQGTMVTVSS VL: QSVLTQPPSASGTPGQRVTISCRGSSSNIGLNYVSWYQQLPGTAPKLLISRNNQRPSGVPDRFSGSKSGTSASLAISGLRSEDEADYYCAAWDDSPPGEAFGGGTKLTVL , and I need its recorded T47D HRG inducible pHer3 % Max inhibition.
86

I have this binder here, 2C2 monoclonal antibody, human IgG1 (antibody, V domains shown) VH: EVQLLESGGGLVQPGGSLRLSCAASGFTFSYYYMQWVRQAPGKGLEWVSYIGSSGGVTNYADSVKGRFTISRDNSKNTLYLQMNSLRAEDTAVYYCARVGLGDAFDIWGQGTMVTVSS VL: QSVLTQPPSASGTPGQRVTISCSGSLSNIGLNYVSWYQQLPGTAPKLLISRNNQRPSGVPDRFSGSKSGTSASLAISGLRSEDEADYYCAAWDDSPPGEAFGGGTKLTVL , and I need its recorded T47D HRG inducible pHer3 % Max inhibition.
85
